Where do these numbers come from? They come from ChEMBL document CHEMBL1137197.

Biological target: Phosphodiesterase 1 (Homo sapiens, UniProt P54750+Q01064+Q14123)
Experiment: Inhibition of human Phosphodiesterase 1 purified from THP-1 cells
Assay type: cell-free
Below, each entry is listed with its recorded IC50.

sample smiles: Cn1nc(-c2ccc(Cl)cc2)s/c1=N\c1ccc(F)c(C(=O)O)c1
measured target: Phosphodiesterase 1 (Homo sapiens, UniProt P54750+Q01064+Q14123)
unit label: µM
qualifier operator: =
IC50: 21.58
//
sample smiles: Cn1nc(-c2ccc(Cl)cc2)s/c1=N\c1cccc(O)c1
measured target: Phosphodiesterase 1 (Homo sapiens, UniProt P54750+Q01064+Q14123)
unit label: µM
qualifier operator: =
IC50: 9.81
//
sample smiles: Cc1cccc(C(=O)O)c1/N=c1\sc(-c2ccc(Cl)cc2)nn1C
measured target: Phosphodiesterase 1 (Homo sapiens, UniProt P54750+Q01064+Q14123)
unit label: µM
qualifier operator: =
IC50: 14.06
//
sample smiles: Cn1nc(-c2ccc(Cl)cc2)s/c1=N\c1cccc(C#N)c1
measured target: Phosphodiesterase 1 (Homo sapiens, UniProt P54750+Q01064+Q14123)
unit label: µM
qualifier operator: >
IC50: 101
//
sample smiles: Cn1nc(-c2ccc(Cl)cc2)s/c1=N\c1ccc(C(=O)O)cc1
measured target: Phosphodiesterase 1 (Homo sapiens, UniProt P54750+Q01064+Q14123)
unit label: µM
qualifier operator: =
IC50: 28.93
//
sample smiles: Cn1nc(-c2ccc(Cl)cc2)s/c1=N\c1cccc(C(=O)O)c1
measured target: Phosphodiesterase 1 (Homo sapiens, UniProt P54750+Q01064+Q14123)
unit label: µM
qualifier operator: =
IC50: 16.38
//
sample smiles: Cn1nc(-c2ccc(Cl)cc2)s/c1=N\c1ccc(O)cc1
measured target: Phosphodiesterase 1 (Homo sapiens, UniProt P54750+Q01064+Q14123)
unit label: µM
qualifier operator: >
IC50: 101
//
sample smiles: Cn1nc(-c2ccc(Cl)cc2)s/c1=N\c1cccc(C(N)=O)c1
measured target: Phosphodiesterase 1 (Homo sapiens, UniProt P54750+Q01064+Q14123)
unit label: µM
qualifier operator: =
IC50: 7.83
//
sample smiles: Cn1nc(-c2ccc(Cl)cc2)s/c1=N\c1c(O)cccc1C(=O)O
measured target: Phosphodiesterase 1 (Homo sapiens, UniProt P54750+Q01064+Q14123)
unit label: µM
qualifier operator: =
IC50: 28.84
//
sample smiles: Cn1nc(-c2ccc(Cl)cc2)s/c1=N\c1ccc(F)cc1
measured target: Phosphodiesterase 1 (Homo sapiens, UniProt P54750+Q01064+Q14123)
unit label: µM
qualifier operator: =
IC50: 85.68
//
sample smiles: Cn1nc(-c2ccc(Cl)cc2)s/c1=N\c1cccc(CC(=O)O)c1
measured target: Phosphodiesterase 1 (Homo sapiens, UniProt P54750+Q01064+Q14123)
unit label: µM
qualifier operator: =
IC50: 40.34
